Origin of values: patent US8962608B2

- experimental-system: JAK2 (recombinant purified GST-tagged catalytic domain) (Homo sapiens (Human), UniProt O60674)
- Sequence (O60674 849-1124): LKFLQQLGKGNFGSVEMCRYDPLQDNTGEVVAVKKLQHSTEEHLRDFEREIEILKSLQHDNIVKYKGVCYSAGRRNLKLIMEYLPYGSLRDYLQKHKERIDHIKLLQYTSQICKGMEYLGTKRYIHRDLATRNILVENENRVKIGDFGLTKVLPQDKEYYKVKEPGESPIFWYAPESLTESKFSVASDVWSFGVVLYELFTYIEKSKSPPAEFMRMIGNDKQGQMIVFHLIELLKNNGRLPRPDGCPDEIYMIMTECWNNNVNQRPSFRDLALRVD
- experiment-notes: biochemical
pIC50: −log10 of the molar value.
property-name: pIC50

compound	recorded-value
N#C[C@H]1C[C@@H](C(=O)NC2CC(F)(F)C2)CC[C@@H]1n1cc(C(N)=O)c(Nc2ccc(Cl)cc2)n1 (single isomer, unassigned) [Example 35-20]	6.76

[A] N#C[C@H]1C[C@H](NC2CC2)CC[C@@H]1n1cc(C(N)=O)c(Nc2ccc(C(F)(F)F)cc2)n1 (single isomer, unassigned) [Example 28-139]
[B] CC(=O)N1CCN(S(=O)(=O)c2ccc(Nc3nn([C@H]4CCCC[C@@H]4C#N)cc3C(N)=O)cc2)CC1 (single isomer, unassigned) [Example 17-89]
[C] C[C@H](N[C@@H]1CC[C@H](n2cc(C(N)=O)c(Nc3ccc(C(F)(F)F)cc3)n2)[C@@H](C#N)C1)C1CC1 (single isomer, unassigned) [Example 28-190]
Order these by pIC50, descending, and give the full ranking. // respond by listing labels in the order requested B, A, C
(B: 9.00, A: 6.95, C: 6.57)

====

- experimental-system: JAK2 (recombinant purified GST-tagged catalytic domain) (Homo sapiens (Human), UniProt O60674)
- experiment-notes: biochemical
pIC50: −log10 of the molar value.
property-name: pIC50

// worked examples, pIC50 included
molecule	property-name	recorded-value
N#C[C@H]1C[C@@H](CF)CC[C@@H]1n1cc(C(N)=O)c(Nc2ccnc(F)c2)n1 (racemic)	pIC50	7.89
C[C@@H](N[C@@H]1CC[C@H](n2cc(C(N)=O)c(Nc3ccc(S(=O)(=O)C(F)(F)F)cc3)n2)[C@@H](C#N)C1)C1CC1 (single isomer, unassigned)	pIC50	7.21
CC(=O)c1ccc(Nc2nn([C@H]3CC[C@@H](N4CCC4)C[C@@H]3C#N)cc2C(N)=O)cc1 (single isomer, unassigned)	pIC50	7.74

[A] N#C[C@H]1CCCC[C@@H]1n1cc(C(N)=O)c(Nc2cnc3cc(Cl)ccc3c2)n1 (single isomer, unassigned)
[B] CC1(C)CN([C@@H]2CC[C@H](n3cc(C(N)=O)c(Nc4ccc(C(F)(F)F)cc4)n3)[C@@H](C#N)C2)C1 (single isomer, unassigned)
// select label with min value of measured pIC50 from [ A , B ] Kindly give the label for the entry you pick. B
(B: 6.55, A: 7.68)

====

- experimental-system: JAK1 (recombinant purified GST-tagged catalytic domain) (Homo sapiens (Human))
- experiment-notes: biochemical
property-name: IC50 (nM)

// worked examples, IC50 included
molecule	experimental-system	IC50, nM
N#C[C@H]1C[C@H](N2CC(F)C2)CC[C@@H]1n1cc(C(N)=O)c(Nc2ccc(S(=O)(=O)C(F)(F)F)cc2)n1 (single isomer, unassigned)	JAK1 (recombinant purified GST-tagged catalytic domain) (Homo sapiens (Human))	0.45
COCCN(C)[C@H]1CC[C@H](n2cc(C(N)=O)c(Nc3ccc(S(=O)(=O)C(F)(F)F)cc3)n2)[C@@H](C#N)C1 (single isomer, unassigned)	JAK1 (recombinant purified GST-tagged catalytic domain) (Homo sapiens (Human))	0.6
CC1(CNC(=O)[C@H]2CC[C@H](n3cc(C(N)=O)c(Nc4ccc(Cl)cc4)n3)[C@@H](C#N)C2)COC1 (single isomer, unassigned)	JAK1 (recombinant purified GST-tagged catalytic domain) (Homo sapiens (Human))	9
CN(C1COC1)[C@H]1CC[C@@H](n2cc(C(N)=O)c(Nc3ccc(C(F)(F)F)cc3)n2)[C@H](C#N)C1 (single isomer, unassigned)	JAK1 (recombinant purified GST-tagged catalytic domain) (Homo sapiens (Human))	9

[I] N#C[C@H]1CCCC[C@@H]1n1cc(C(N)=O)c(Nc2cncc(Cl)c2)n1 (single isomer, unassigned)
[II] CN(C)CC1CCC(n2cc(C(N)=O)c(Nc3ccc(F)cc3)n2)[C@H](C#N)C1 (mixture of isomers)
Given I and II , report the one with the higher recorded IC50. Kindly give the label for the entry you pick. II
(II: 11 nM, I: 7 nM)

====

- experimental-system: JAK2 (recombinant purified GST-tagged catalytic domain) (Homo sapiens (Human), UniProt O60674)
- experiment-notes: biochemical
property-name: IC50 (nM)

// worked examples, IC50 included
compound	property-name	units	recorded-value
N#C[C@@H]1CCCC[C@H]1n1cc(C(N)=O)c(Nc2ccc(S(=O)(=O)Nc3ccccn3)cc2)n1 (single isomer, unassigned)	IC50	nM	9
CC(C)(C)N[C@H]1CCC(n2cc(C(N)=O)c(Nc3ccc(C(F)(F)F)cc3)n2)[C@@H](C#N)C1 (single isomer, unassigned)	IC50	nM	26
N#C[C@H]1C[C@H](O)CC[C@@H]1n1cc(C(N)=O)c(Nc2ccc(C3CC3)cc2)n1 (single isomer, unassigned)	IC50	nM	25
N#C[C@H]1CCCC[C@@H]1n1cc(C(N)=O)c(Nc2ccc(Cl)c(Cl)c2)n1 (single isomer, unassigned)	IC50	nM	93

[A] N#C[C@H]1C[C@@H](N2CC3(CCC3)C2)CC[C@@H]1n1cc(C(N)=O)c(Nc2ccccc2)n1 (single isomer, unassigned)
[B] N#C[C@@H]1CCCC[C@H]1n1cc(C(N)=O)c(Nc2ccc(S(=O)(=O)NCCN3CCOCC3)cc2)n1 (single isomer, unassigned)
[C] CC1(CN[C@H]2CC[C@H](n3cc(C(N)=O)c(Nc4ccc(C(F)(F)F)cc4)n3)[C@@H](C#N)C2)COC1 (single isomer, unassigned)
[D] N#C[C@H]1CCCCC1n1cc(C(N)=O)c(Nc2ccc(-c3cn[nH]c3)nc2)n1 (mixture of isomers)
[E] CN(CC1(C)COC1)[C@H]1CCC(n2cc(C(N)=O)c(Nc3ccc(Cl)cc3)n2)[C@@H](C#N)C1 (single isomer, unassigned)
Order these by IC50, descending, and give the full ranking. // respond by listing labels in the order requested A, C, D, E, B
(A: 61 nM, C: 35 nM, D: 16 nM, E: 11 nM, B: 1 nM)

====

Test system JAK2 (recombinant purified GST-tagged catalytic domain) (Homo sapiens (Human)), pIC50 listed for each of the compounds.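 Also: biochemical JAK kinase assay with HTRF detection.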
pIC50: −log10 of the molar value.
property-name: pIC50

compound	recorded-value
C[C@]1(C#N)CCCC[C@@H]1n1cc(C(N)=O)c(Nc2ccc(F)cc2)n1 (mixture of isomers)	7.96

[1] CC1(C)CN(C(=O)[C@H]2CC[C@H](n3cc(C(N)=O)c(Nc4ccc(Cl)cc4)n3)[C@@H](C#N)C2)C1 (single isomer, unassigned)
[2] CS(=O)(=O)c1ccc(Nc2nn([C@H]3CCC[C@H]3C#N)cc2C(N)=O)cc1 (mixture of isomers)
[3] CS(=O)(=O)c1ccc(Nc2nn([C@H]3CCCC[C@@H]3C#N)cc2C(N)=O)cc1 (single isomer, unassigned)
// smallest pIC50 at index 0, largest at the end // respond by listing labels in the order requested 2, 1, 3

====

- experimental-system: JAK1 (recombinant purified GST-tagged catalytic domain) (Homo sapiens (Human), UniProt P23458)
- Sequence (P23458 875-1153): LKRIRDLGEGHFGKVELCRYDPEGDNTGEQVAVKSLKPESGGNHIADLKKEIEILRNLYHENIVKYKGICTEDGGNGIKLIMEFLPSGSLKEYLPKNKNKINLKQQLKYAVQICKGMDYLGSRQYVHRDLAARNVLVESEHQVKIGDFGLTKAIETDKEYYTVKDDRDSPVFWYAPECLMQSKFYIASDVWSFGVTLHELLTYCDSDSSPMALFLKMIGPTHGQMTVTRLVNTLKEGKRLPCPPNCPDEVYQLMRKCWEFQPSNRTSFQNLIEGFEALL
property-name: IC50 (nM)

// worked examples, IC50 included
compound	IC50, nM
CC(C)(C)OC(=O)NCC1CC[C@@H](C#N)[C@@H](n2cc(C(N)=O)c(Nc3ccc(F)cc3)n2)C1 (mixture of isomers) [Example 11-8]	158
N#C[C@@H]1CCC2(C[C@H]1n1cc(C(N)=O)c(Nc3ccccc3)n1)OCCO2 (single isomer, unassigned) [Example 45-3]	147
Cc1cncc(Nc2nn([C@H]3CCCC[C@@H]3C#N)cc2C(N)=O)c1 [Example 17-73]	16
N#C[C@H]1CCCC[C@@H]1n1cc(C(N)=O)c(Nc2cc(Cl)cc(Cl)c2)n1 (single isomer, unassigned) [Example 17-54]	18
CC1CCC(C#N)C(n2cc(C(N)=O)c(Nc3ccccc3)n2)C1 (stereo not shown) [Example 11-6]	7

[I] N#C[C@H]1C[C@H](N2CCC2)CC[C@@H]1n1cc(C(N)=O)c(Nc2ccc(OC(F)F)nc2)n1 (single isomer, unassigned) [Example 28-2]
[II] COC(=O)[C@H]1CCC(n2cc(C(N)=O)c(Nc3ccc(F)cc3)n2)[C@@H](C#N)C1 (stereo partly shown) [Example 7-2]
Given I and II , report the one with the higher recorded IC50. Kindly give the label for the entry you pick. II
(II: 14 nM, I: 4 nM)

====

- experimental-system: JAK1 (recombinant purified GST-tagged catalytic domain) (Homo sapiens (Human));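 also: biochemical assay with HTRF read-out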
- experiment-notes: biochemical
pIC50: −log10 of the molar value.
property-name: pIC50

// worked examples, pIC50 included
compound	experimental-system	recorded-value
N#C[C@H]1CC(N(C2CC2)C2CC2)CC[C@@H]1n1cc(C(N)=O)c(Nc2ccc(S(=O)(=O)C(F)(F)F)cc2)n1 (single isomer, unassigned)	JAK1 (recombinant purified GST-tagged catalytic domain) (Homo sapiens (Human))	9.00
N#C[C@H]1C[C@@H](O)CC[C@@H]1n1cc(C(N)=O)c(Nc2ccc(Cl)c(F)c2)n1 (single isomer, unassigned)	JAK1 (recombinant purified GST-tagged catalytic domain) (Homo sapiens (Human))	8.70
N#C[C@@H]1CCCCC1n1cc(C(N)=O)c(Nc2ccc(S(=O)(=O)CC(F)(F)F)cc2)n1 (single isomer, unassigned) [Example 43-8]	JAK1 (recombinant purified GST-tagged catalytic domain) (Homo sapiens (Human))	9.82
CC1CN([C@H]2CC[C@H](n3cc(C(N)=O)c(Nc4ccc(Cl)cc4)n3)[C@@H](C#N)C2)C1 (single isomer, unassigned)	JAK1 (recombinant purified GST-tagged catalytic domain) (Homo sapiens (Human))	8.70

[P] N#C[C@H]1C[C@H](N2CCC2)CC[C@@H]1n1cc(C(N)=O)c(Nc2ccc(CC(F)(F)F)cc2)n1 (single isomer, unassigned)
[Q] CC(C)(O)CN[C@H]1CCC(n2cc(C(N)=O)c(Nc3ccc(Cl)cc3)n2)[C@@H](C#N)C1 (single isomer, unassigned)
Given P and Q , report the one with the higher recorded pIC50. Kindly give the label for the entry you pick. P
(P: 9.40, Q: 8.70)
